# assay: Pharmacokinetic measurements in rats (i.v., i.t., oral)
# Format: in vivo
# conditions: male, CD, rat, lung, other: intra-tracheal; read-out: lung concentration (nM) at time 0.1 h
Where a name gives a salt, the structure may show the parent alone.
Would you please tag the item Yes when its concentration at 0.1 h is 6000 nM or above, and No when it is below?

compound | class-assignment
COC(=O)c1cc2c(cc1C)/C(=C(/Nc1ccc(C(=O)NC3CCN(C)CC3)cc1)c1ccccc1)C(=O)N2 [Example 18, formate] | Yes
COC(=O)c1cc2c(cc1C)/C(=C(/Nc1ccc(C(=O)NCCN3CCNC(=O)C3)cc1)c1ccccc1)C(=O)N2 | No

Could you please find out whether `COC(=O)c1cc2c(cc1C)/C(=C(/Nc1ccc(C(=O)NCCN3CCN(C)CC3)cc1)c1ccccc1)C(=O)N2` has concentration at 0.1 h that meets 6000 nM or exceeds it? No

Could you please find out whether COC(=O)c1ccc2c(c1)NC(=O)/C2=C(\Nc1ccc(N(C)C(=O)CN2CCN(C)CC2)cc1)c1ccccc1 [Nintedanib, reference compound] has concentration at 0.1 h that meets 6000 nM or exceeds it? Yes

Could you please find out whether COC(=O)c1cc2c(cc1C)/C(=C(/Nc1ccc(C(=O)NCC3CCN(C)CC3)cc1)c1ccccc1)C(=O)N2 [Example 3, formate] has concentration at 0.1 h that meets 6000 nM or exceeds it? No

* * *

# assay: Pharmacokinetic measurements in rats (i.v., i.t., oral)
# Format: in vivo
# conditions: rat, i.v. dose 0.1 (nintedanib 0.42), 0.1 h
Where a name gives a salt, the structure may show the parent alone.
metric-name: BAL % administered dose at time 0.1 h (%)
Supply the numeric figure in %, leaving out any unit text.

Recorded BAL % administered dose at time 0.1 h, per entry:
molecule | metric-name | quantitative-readout
COC(=O)c1cc2c(cc1C)/C(=C(/Nc1ccc(C(=O)NC3CCN(C)CC3)cc1)c1ccccc1)C(=O)N2 [Example 18, formate] | BAL % administered dose at time 0.1 h | 0.13
COC(=O)c1cc2c(cc1C)/C(=C(/Nc1ccc(C(=O)NCC(=O)N3CCN(CCO)CC3)cc1)c1ccccc1)C(=O)N2 [Example 7] | BAL % administered dose at time 0.1 h | 0.06

BAL % administered dose at time 0.1 h for COC(=O)c1cc2c(cc1C)/C(=C(/Nc1ccc(C(=O)NCCN3CCN(C)CC3)cc1)c1ccccc1)C(=O)N2 [Example 4] ? 0.07

BAL % administered dose at time 0.1 h for COC(=O)c1ccc2c(c1)NC(=O)/C2=C(\Nc1ccc(N(C)C(=O)CN2CCN(C)CC2)cc1)c1ccccc1 [Nintedanib, reference compound] ? 0.06

BAL % administered dose at time 0.1 h for COC(=O)c1cc2c(cc1C)/C(=C(/Nc1ccc(C(=O)NCC3CCN(C)CC3)cc1)c1ccccc1)C(=O)N2 [Example 3, formate] ? 0.1

* * *

BAL % administered dose at time 1.5 h values by entry
# assay: Pharmacokinetic measurements in rats (i.v., i.t., oral)
# Type: in vivo
# conditions: rat, i.t. dose 0.1 (nintedanib 0.42), 1.5 h
Where a name gives a salt, the structure may show the parent alone.
Answer shape: numeric part, then the unit.

compound | BAL % administered dose at time 1.5 h
COC(=O)c1cc2c(cc1C)/C(=C(/Nc1ccc(C(=O)NCCN3CCC(N(C)C)CC3)cc1)c1ccccc1)C(=O)N2 [Example 6] | 0.9%

BAL % administered dose at time 1.5 h for COC(=O)c1cc2c(cc1C)/C(=C(/Nc1ccc(C(=O)NCC3CCN(C)CC3)cc1)c1ccccc1)C(=O)N2 [Example 3, formate] ? 1.2%

BAL % administered dose at time 1.5 h for COC(=O)c1cc2c(cc1C)/C(=C(/Nc1ccc(C(=O)NC3CCN(C)CC3)cc1)c1ccccc1)C(=O)N2 [Example 18, formate] ? 2.2%

BAL % administered dose at time 1.5 h for COC(=O)c1cc2c(cc1C)/C(=C(/Nc1ccc(C(=O)NCCN3CCN(C)CC3)cc1)c1ccccc1)C(=O)N2 [Example 4] ? 0.4%

BAL % administered dose at time 1.5 h for COC(=O)c1cc2c(cc1C)/C(=C(/Nc1ccc(C(=O)NCCN3CCCN(C)CC3)cc1)c1ccccc1)C(=O)N2 [Example 5] ? 0.9%

BAL % administered dose at time 1.5 h for COC(=O)c1ccc2c(c1)NC(=O)/C2=C(\Nc1ccc(N(C)C(=O)CN2CCN(C)CC2)cc1)c1ccccc1 [Nintedanib, reference compound] ? 1%

BAL % administered dose at time 1.5 h for COC(=O)c1cc2c(cc1C)/C(=C(/Nc1ccc(C(=O)NCC(=O)N3CCN(CCO)CC3)cc1)c1ccccc1)C(=O)N2 [Example 7] ? 0.6%

BAL % administered dose at time 1.5 h for COC(=O)c1cc2c(cc1C)/C(=C(/Nc1ccc(C(=O)NCCN3CCNC(=O)C3)cc1)c1ccccc1)C(=O)N2 [Example 9] ? 5.2%
